Reference for the values: PubChem BioAssay (NCI)

Tested on: LOX IMVI melanoma
Assay: NCI-60 one-dose screen, 48 h
Conditions: 10 µM unless noted
This is part of a sample that, as a whole, favours compounds with a hit. Of some 83,000 tested, about 20% had one in any assay. Active and inactive are the calls of the source. Rule for the calls: active = growth percent below 10; inactive = the rest.
Lab note: assign the record to one of active, inactive

- COc1cccc(-c2nn(-c3ccccc3)cc2-c2ccnc(NCCNC(=O)Nc3cccc(C(F)(F)F)c3)c2)c1: active
- COc1cc(N=Nc2ccc(N)cc2)c(OC)cc1N=Nc1ccccc1.[Cl][Zn][Cl]: inactive
- COc1cc(/C=C/C(=O)N2CCN(C(=O)c3cc(OC)c(OC)c(OC)c3)CC2)ccc1OCCCN1C(=O)c2cccc3cccc(c23)C1=O: inactive
- COC(=O)[C@]12CC[C@@H](C)[C@H](C)[C@@H]1C1=CC[C@@H]3[C@@]4(C)C(C=O)=C[C@@](C)(COC(C)=O)[C@@H]4[C@H](O)C[C@@]3(C)[C@]1(C)CC2: active
- COc1cccc(-c2nn(-c3ccccc3)cc2-c2ccnc(NCCNC(=O)Nc3ccc(Cl)c(Cl)c3)c2)c1: active
- O=C1/C(=C/c2ccc(F)cc2)C=C(c2ccccc2)N1CCc1ccccc1: inactive
- CSc1n(Cc2ccc3ccccc3c2)c(C)c[n+]1Cc1ccc2ccccc2c1: active
- O=C(CSc1nnc(-c2ccc(NC(=O)c3cccnc3)cc2)o1)Nc1cccc(Br)c1: inactive

Turning now to a further record.
In this assay, the call recorded for `CCOC(=O)c1ccc(N2NC(=O)/C(=C/c3ccc([N+](=O)[O-])o3)C2=O)cc1` was what? inactive

---

System: OVCAR-5 ovarian
Assay: NCI-60 one-dose screen, 48 h (100 = growth as untreated, 0 = no growth, -100 = all killed)
Conditions: 10 µM unless noted
Compounds without any hit were thinned out: in the full panel of roughly 83,000, 20% have a hit. Active and inactive are the calls of the source. Rule for the calls: active = growth percent below 10; inactive = the rest.
Examples of molecules with documented growth follow.

Known results for molecules:
• COC(=O)c1c2c(c(C)[n+]([O-])c1C)C(=O)C(NCc1ccc(F)cc1)=CC2=O = 46.2% (inactive)
• COc1cc(/C=C/C(=O)N2CCN(C(=O)c3cc(OC)c(OC)c(OC)c3)CC2)ccc1OCCCN1C(=O)c2cccc3cccc(c23)C1=O = 107% (inactive)
• CCCCCCCCCCCCCCCCCCOc1ccc(CC(=O)OCC[N+]2(C)CCCC2)cc1 = 97.9% (inactive)
• NC(=O)c1ccc[n+]([C@@H]2O[C@H](COP(=O)([O-])OP(=O)(O)OC[C@H]3O[C@@H](n4cnc5c(N)ncnc54)[C@H](O)[C@@H]3O)[C@@H](O)[C@H]2O)c1 = 107% (inactive)
• COc1cc(-c2nc(N3CCN(C)CC3)c3ccccc3n2)cc(OC)c1OC = 88.5% (inactive)

Fill in the blank: the reported growth of `COC(=O)/C=C1\S/C(=N\NS(=O)(=O)c2ccc(C)cc2)N(c2ccccc2)C1=O` is ____. 109% (inactive)

Entry `CC/C=C\C[C@H](O)C/C=C1/C(=O)C=C[C@@H]1C/C=C\CCCC(=O)OC` has what growth? 27.1% (inactive)

Param item = `N#C/C(=C\c1ccc2c(c1)OCO2)n1nnc2cc(F)c(F)cc21` ; retrieve measured growth. 96.8% (inactive)

---

Test system: M14 melanoma
Assay: NCI-60 one-dose screen, 48 h (100 = growth as untreated, 0 = no growth, -100 = all killed)
Details: 10 µM unless noted
Method: Growth inhibition of the M14 human tumor cell line is measured as a screen for anti-cancer activity. Cells are grown in 96 well plates and exposed to the test compound for 48 hours. Compounds are tested at a single concentration, which is 10^-5 M for most compounds. The reported endpoint is percent growth (GI% or GIPRCNT), where numbers from 0 - 100% represent growth inhibition, and numbers from -100% - 0 represent cell death. For example, a value of 40 represents 60% growth inhibition. […]
About 83,000 compounds went through this panel and 20% of them were active in at least one assay; those are over-represented in the sample as a whole.
MEASURED ATTRIBUTE: growth (%)
Form entry: value (%) — number only.

Consider the worked cases shown below.
- COc1cc(/C=N/Nc2ncc(-c3cc4cc5c(cc4o3)OCO5)s2)cc(OC)c1OC: 26.3
- COc1cc(CCC[P+](c2ccccc2)(c2ccccc2)c2ccccc2)cc2c1OCO2: 30.8
- CC1O[C@@H](OC2[C@H](OC(=O)/C=C/c3ccc(O)c(O)c3)C(COC3O[C@H](C)C(O)C(O)[C@@H]3O)O[C@@H](OCCc3ccc(O)c(O)c3)[C@H]2O)[C@@H](O)C(O)[C@H]1O (stereo not given in full): 97.1
- O=C(CC(SCc1ccccc1)c1ccccc1)c1ccccc1 (stereo not given): 87
- Cc1c(C(=O)OC(=NC2CCCCC2)NC2CCCCC2)sc2c1c(=O)nc1c(C#N)n[nH]n12: 103
- COc1ccccc1N1C(=O)/C(=C/C2=Cc3ccccc3OC2)SC1=S: 98.2

Given the compound `Cc1ccc(-c2cc(-c3cccnc3)[nH]c(=O)c2C#N)cc1` , what is its reported growth? 112

Would you mind telling me what growth value was observed for `Clc1cccc(Cl)c1C(Nc1nc2ccccc2s1)Nc1nc2ccccc2s1` ? 122

Any idea what growth was measured for `Cc1cccc(Cc2cnc(NC(=O)/C=C/c3ccco3)s2)c1` ? 10.3

What value of growth has been recorded for this entry: `CCOC(=O)c1c2c(n3ccc(NC(=O)OC(C)(C)C)cc13)C(=O)c1ncccc1C2=O` -55.8

Data request, read-out growth, for `CCCCCCCCn1ccc2cc(NC(=O)Cn3cc(CN4CCCC4)nn3)ccc21` -66.5
